All values here come from patent EP3345917A1.

Measured IC50 at 70 h, listed per entry.
# runDescription: Cytotoxicity assay on L6-cells (Alamar Blue)
# statedConditions: rat, Cytotox L6, Cytotoxicity against rat myoblast cells (L6)
Non-standard residues stand in square brackets, D forms with d. Residues, ends and D or L forms follow the SMILES beside them. *: point of attachment. Leu(3R-OH) = CC(C)[C@@H](O)[C@H](N)C(=O)O; NH((S)CH(Me)CH2NMe2) = C[C@@H](CN(C)C)N*; NH(1-CH2NMe2-cBu) = CN(C)CC1(N*)CCC1; Gly(octyl) = CCCCCCCC[C@H](N)C(=O)O; X4 = O=C(C1CCc2ccccc2C1)*; Hexanoyl = CCCCCC(=O)*; Aib = CC(C)(N)C(=O)O; βAla = NCCC(=O)O
Your answer is read as nM, so omit the unit and give the number.

molecule="CCCCCCCC[C@H](NC(=O)C1CCc2ccccc2C1)C(=O)N[C@@H](CC(C)C)C(=O)NC(C)(C)C(=O)N[C@@H](CC(C)C)C(=O)N[C@@H](CC(C)C)C(=O)NC(C)(C)C(=O)NC(C)(C)C(=O)NCCC(=O)N[C@@H](C)CN(C)C (stereo partly drawn) [Compound 5944] (X4-[Gly(octyl)]L[Aib]LL[Aib][Aib][βAla]-{NH((S)CH(Me)CH2NMe2)})" result=137

Name the reported IC50 at 70 h value associated with the molecule CCCCCCCC[C@H](NC(=O)[C@@H]1CCCN1C(=O)CCCCC)C(=O)N[C@@H](CC(C)C)C(=O)NC(C)(C)C(=O)N[C@@H](CC(C)C)C(=O)N[C@@H](CC(C)C)C(=O)NC(C)(C)C(=O)NC(C)(C)C(=O)NCCC(=O)NC1(CN(C)C)CCC1 [Compound 5882] (Hexanoyl-P[Gly(octyl)]L[Aib]LL[Aib][Aib][βAla]-{NH(1-CH2NMe2-cBu)}) 44.1

Name the reported IC50 at 70 h value associated with the molecule CCCCCCCC[C@H](NC(=O)[C@@H]1CCCN1C(=O)CCCCC)C(=O)N[C@H](C(=O)NC(C)(C)C(=O)N[C@@H](CC(C)C)C(=O)N[C@@H](CC(C)C)C(=O)NC(C)(C)C(=O)NC(C)(C)C(=O)NCCC(=O)N[C@@H](C)CN(C)C)[C@H](O)C(C)C [Compound 5517] (Hexanoyl-P[Gly(octyl)][Leu(3R-OH)][Aib]LL[Aib][Aib][βAla]-{NH((S)CH(Me)CH2NMe2)}) 338
